system: Yap1 mRNA; experiment: Antisense inhibition of human Yap1 in SNU-449 cells by modified oligonucleotides, single dose (Example 5, RTS36584); type: cell-based; conditions: Table 39; SNU-449 cells, 10,000 cells per well, free uptake, 2,000 nM oligonucleotide, approx. 48 hours; RTS36584; normalized to RIBOGREEN; Yap1 mRNA relative to untreated control
Strand notation (5' to 3'): a small letter for the sugar, then the base; units joined by * are phosphorothioate-linked, units joined directly phosphodiester-linked; [ ] holds rarer units or linkages, { } end groups; capitals alone tell only the bases. e = 2'-O-(2-methoxyethyl) (MOE); k = constrained ethyl (cEt); [5mC] = 5-methylcytosine; d = 2'-deoxy (DNA)
1 (yes) means recorded YAP1 (% UTC) is 20 % UTC or above; 0 (no) means it is below 20 % UTC.

Previously resolved entries follow.
{"columns": ["substance", "assigned category"],
 "data": [
  ["1198412 (kT*dT*dA*dG*dG*dA*dT*dG*d[5mC]*dA*dT*kG*eG*kT*eT*kT; antisense) [Compound 1198412]", "0 (no)"],
  ["1198376 (kT*dG*dG*dA*dA*dA*dT*dT*dG*dT*d[5mC]*kT*e[5mC]*kA*eT*kG; antisense) [Compound 1198376]", "1 (yes)"],
  ["1198393 (kT*dT*dA*d[5mC]*dA*dT*dT*dA*dG*dG*dA*kA*e[5mC]*kA*eA*kG; antisense) [Compound 1198393]", "1 (yes)"],
  ["1198387 (kT*d[5mC]*dT*dA*dT*dA*dT*dT*dA*dG*dA*kG*eT*kA*eT*kG; antisense) [Compound 1198387]", "1 (yes)"],
  ["1198416 (kA*dG*dA*dT*dT*dT*dA*dG*dG*dA*dT*kG*e[5mC]*kA*eT*kG; antisense) [Compound 1198416]", "1 (yes)"]
]}

Prompt line: Item 1198373 (kA*dA*dA*dT*dT*dG*dT*d[5mC]*dT*d[5mC]*dA*kT*eG*k[5mC]*e[5mC]*kT; antisense) [Compound 1198373] with YAP1 (% UTC) of 20 % UTC or above?
Response line: 1 (yes)

Prompt line: Would you say 1198394 (kT*dT*dT*dT*dA*d[5mC]*dA*dT*dT*dA*dG*kG*eA*kA*e[5mC]*kA; antisense) [Compound 1198394] shows YAP1 (% UTC) at minimum 20 % UTC?
Response line: 1 (yes)

Prompt line: Could you verify whether the entry 1198382 (kT*dT*dA*dG*dA*dG*dT*dA*dT*dG*dT*kG*eG*k[5mC]*eA*kA; antisense) [Compound 1198382] shows YAP1 (% UTC) of no less than 20 % UTC?
Response line: 0 (no)

###

tested on: Yap1 mRNA; assay: Antisense inhibition of human Yap1 in A-431 cells by cEt gapmers, single dose (Example 3, RTS36584); format: cell-based; conditions: Table 26; Yap1 mRNA by 3-10-3 cEt gapmers targeting SEQ ID NO.: 1, and 2; percent of untreated control
Strand notation (5' to 3'): a small letter for the sugar, then the base; units joined by * are phosphorothioate-linked, units joined directly phosphodiester-linked; [ ] holds rarer units or linkages, { } end groups; capitals alone tell only the bases. k = constrained ethyl (cEt); [5mC] = 5-methylcytosine; d = 2'-deoxy (DNA)
Catalogue of YAP1 (% UTC) values
Lab book: enter the figure in % UTC, no units written.

The cases that follow already have their YAP1 (% UTC) on record.
{"columns": ["substance", "YAP1 (% UTC)"],
 "data": [
  ["1074476 (kT*kT*k[5mC]*d[5mC]*dG*dA*d[5mC]*dA*dA*dA*dA*d[5mC]*d[5mC]*kA*kA*k[5mC]; antisense) [compound 1074476]", 18],
  ["1074892 (k[5mC]*kT*kG*dA*dA*dG*dT*dT*dT*dA*dG*d[5mC]*d[5mC]*kT*kG*kA; antisense) [compound 1074892]", 42],
  ["1075340 (antisense k[5mC]*k[5mC]*k[5mC]*dG*dA*dA*d[5mC]*dA*d[5mC]*d[5mC]*d[5mC]*dA*dA*kA*kA*kA) [compound 1075340]", 103],
  ["1076332 (antisense kT*kA*kT*dA*dA*dG*dG*dA*dA*dT*dG*dG*d[5mC]*kA*kA*k[5mC]) [compound 1076332]", 107]
]}

Prompt line: Fill in: YAP1 (% UTC) of 1076012 (kA*kA*kT*dA*dT*dA*dA*dA*d[5mC]*dA*dA*dT*dA*kG*k[5mC]*kG; antisense) [compound 1076012] is ___
Response line: 34

Prompt line: Request the reported YAP1 (% UTC) associated with 1074572 (DNA kT*kT*kA*dT*dG*dA*dA*d[5mC]*d[5mC]*dT*dA*d[5mC]*dT*k[5mC]*kA*k[5mC]) [compound 1074572]
Response line: 17

Prompt line: Return reported YAP1 (% UTC); argument: 1076076 (kT*kA*kT*d[5mC]*dA*dA*dT*dA*d[5mC]*dT*dT*dT*dA*kG*kT*k[5mC]; antisense) [compound 1076076]
Response line: 57

###

test: Cynomolgus monkey tolerability, hematology (Example 34); assay type: in vivo, cynomolgus monkeys; conditions: cynomolgus monkey, in vivo, sc, 35 mg/kg
outcome measure: PLT

Before answering, review these 4 worked examples.
{"columns": ["substance", "PLT"],
 "data": [
  ["1198623 (CTAAGTAAGGTTTCCC; modified gapmer, further chemistry not given here) [compound 1198623]", "376 10^3/μL"],
  ["1197270 (TTAAAGTGTATGTCAG; cEt gapmer with 2'-OMe nucleoside, phosphorothioate, further chemistry not given here) [compound 1197270]", "452 10^3/μL"],
  ["1198728 (TATTAGAGTATGTGGC; modified gapmer, further chemistry not given here) [compound 1198728]", "428 10^3/μL"],
  ["1198439 (AGTGTATGTCAGAAGA; sugar, 5-methylcytosine, phosphorothioate modifications, further chemistry not given here) [compound 1198439]", "367 10^3/μL"]
]}

Prompt line: What PLT value was documented for this substance, 1198605 (GTAATATTGCAATCTG; modified gapmer, further chemistry not given here) [compound 1198605] ?
Response line: 385 10^3/μL

Prompt line: Quick one: PLT of 1198831 (CACTTTTACATTAGGA; chemically modified gapmer, further chemistry not given here) [compound 1198831] ?
Response line: 377 10^3/μL

###

test system: Yap1 mRNA; assay: Dose-dependent inhibition of human Yap1 in A-431 cells (Example 7, 10,000 cells per well, RTS36584); assay type: cell-based; details: Table 61, 15.6 nM, free uptake, A-431 cells 10,000 cells per well, 48 hours
Strand notation (5' to 3'): a small letter for the sugar, then the base; units joined by * are phosphorothioate-linked, units joined directly phosphodiester-linked; [ ] holds rarer units or linkages, { } end groups; capitals alone tell only the bases. k = constrained ethyl (cEt); [5mC] = 5-methylcytosine; d = 2'-deoxy (DNA)
outcome measure: Yap1 mRNA, % UTC

{"columns": ["substance", "Yap1 mRNA, % UTC"],
 "data": [
  ["958644 (kA*kT*kG*dA*dT*d[5mC]*dA*dA*dA*d[5mC]*d[5mC]*dT*dT*kT*kT*k[5mC]; antisense) [compound 958644]", "97 % UTC"],
  ["715483 (k[5mC]*kT*k[5mC]*dT*dT*dT*dG*dG*dA*dA*dA*d[5mC]*d[5mC]*kA*kT*kT) [compound 715483]", "80 % UTC"]
]}

// below: Yap1 mRNA, % UTC requested for another substance
Prompt line: For the substance 958799 (kA*kT*kT*dA*d[5mC]*dT*d[5mC]*dA*dA*dT*d[5mC]*dA*dT*kG*kG*kT; antisense) [compound 958799] , what Yap1 mRNA, % UTC is on record?
Response line: 88 % UTC

###

test system: Yap1 mRNA; experiment: Antisense inhibition of human Yap1 in SNU-449 cells by modified oligonucleotides, single dose (Example 5, RTS36584); assay type: cell-based; conditions: Yap1 mRNA, percent of untreated control; modified oligonucleotides targeting SEQ ID NO: 1 and 2; Table 47
Strand notation (5' to 3'): a small letter for the sugar, then the base; units joined by * are phosphorothioate-linked, units joined directly phosphodiester-linked; [ ] holds rarer units or linkages, { } end groups; capitals alone tell only the bases. k = constrained ethyl (cEt); [5mC] = 5-methylcytosine; d = 2'-deoxy (DNA)
Where YAP1 (% UT) equals or exceeds 60 % UT, the correct label is True; where it does not, the label is False.

{"columns": ["substance", "assigned category"],
 "data": [
  ["1197198 (antisense kA*kT*kT*d[5mC]*dA*dG*dA*dT*dT*dT*dA*dG*dG*kA*kT*kG) [Compound 1197198]", "True"]
]}

Prompt line: Evaluate 1197196 (antisense k[5mC]*kA*kG*dA*dT*dT*dT*dA*dG*dG*dA*dT*dG*k[5mC]*kA*kT) [Compound 1197196] : YAP1 (% UT) at minimum 60 % UT?
Response line: False

Prompt line: Decide: YAP1 (% UT) of 1097238 (antisense kA*kT*kT*dG*d[5mC]*dA*dA*dT*d[5mC]*dT*dG*dT*d[5mC]*kT*kG*kA) [Compound 1097238] >= 60 % UT?
Response line: True

Prompt line: Check this substance for YAP1 (% UT) at or above 60 % UT: 1197181 (antisense kT*kT*kA*d[5mC]*dA*dT*dT*dA*dG*dG*dA*dA*d[5mC]*kA*kA*kG) [Compound 1197181]
Response line: True

Prompt line: Has 958497 (kA*kT*kA*dT*dG*dG*dA*dA*dA*dT*dT*dG*dT*k[5mC]*kT*k[5mC]) [Compound 958497] a recorded YAP1 (% UT) greater than or equal to 60 % UT?
Response line: False

Prompt line: Identify whether the reported YAP1 (% UT) of the following substance is 60 % UT or greater: 1197194 (antisense kT*kT*kA*dG*dG*dA*dT*dG*d[5mC]*dA*dT*dG*dG*kT*kT*kT) [Compound 1197194]
Response line: False
